Experiment: melting temperature; fluorescence melt of hairpins on a sequencing array, two-state fit, raised by 9.35 °C to match UV melts
Conditions: sodium 0.088 M
# strict inequality: Tm < 50 °C yields Fulfilled, everything else yields Not fulfilled

GTAACGCGAAAGCGGTAC (((.(((....))).)))    Not fulfilled
GGCTGGGGAAACCCAACC ((.((((....)))).))    Fulfilled
GTTTACGCGAAAGCGAAC (((..(((....))))))    Fulfilled
GTGTACGAAAGTAAACAC ((((((....)))..)))    Fulfilled

Query :: hey, is Tm for GATCTGAAGCAGATC ((((((...)))))) lower than 50 °C or not?
Result :: Fulfilled

Query :: hey, is Tm for GACATAGCGAAAGCTGTC (((..(((....)))))) lower than 50 °C or not?
Result :: Fulfilled

Query :: hey, is Tm for GATCCGATGCCGGATC ((((((....)))))) lower than 50 °C or not?
Result :: Not fulfilled

Query :: hey, is Tm for GTACGTGGAAACGCGTAC (((((.(....).))))) lower than 50 °C or not?
Result :: Not fulfilled

Query :: hey, is Tm for GATCAGACAGCTGATC ((((((....)))))) lower than 50 °C or not?
Result :: Fulfilled

Query :: hey, is Tm for GATCCAGCTCTGGATC ((((((....)))))) lower than 50 °C or not?
Result :: Not fulfilled

###

Let's look at some sequences and their measured folding enthalpy.
Assay: folding enthalpy; higher = less favourable; fluorescence melt of hairpins on a sequencing array, two-state fit
Conditions: sodium 0.088 M

Solved entries:
GCCGTAGGAAACTATGGC (((.(((....))).)))    -142 kJ/mol
GCATGTGGAAACGTATGC ((((..(....)..))))    -110 kJ/mol
GCTTGGCGAAAGCAATGC ((.(.((....)).).))    -53.4 kJ/mol
GATTCCGAAAGGAATATC ((((((....)))..)))    -72.6 kJ/mol
GATCCGCTCCCGGATC ((((((....))))))    -150 kJ/mol
GGAATAGGAAACTATTTC (.(((((....))))).)    -122 kJ/mol

Query :: Fill in: folding enthalpy of GATCCCAGGAGGGATC ((((((....)))))) is ___
Result :: -135 kJ/mol

###

Experiment: folding enthalpy; higher = less favourable; fluorescence melt of hairpins on a sequencing array, two-state fit
Details: sodium 0.088 M
Class field: derived from folding enthalpy; ranges A = under -30 kcal/mol, B = from -30 kcal/mol up to -20 kcal/mol, C = -20 kcal/mol and over

Observe how each entry below is paired with its result.
GCTTTGCGAAAGCCACGC ((.(.((....)).).))    C
GTGGCGGCGAAAGCCCAC (((..(((....))))))    C
GATCACGAAAGTGGATC ((((((....))).)))    C
GATGTTGGAAACAACATC (((((((....)))))))    A

Query :: Consider GATACCGAAAGGTATC ((((((....)))))) . To which folding enthalpy class does it belong?
Result :: A

Query :: Consider GATGGCGAAAGCCTAATC ((((((....)))..))) . To which folding enthalpy class does it belong?
Result :: C

Query :: Consider GGAGTGGAAACACTCC ((((((....)))))) . To which folding enthalpy class does it belong?
Result :: A

Query :: Consider GCTGAGCGAAAGCTAGC (((.(((....)))))) . To which folding enthalpy class does it belong?
Result :: B

Query :: Consider GATCCGGGGTCGGATC ((((((....)))))) . To which folding enthalpy class does it belong?
Result :: A

Query :: Consider GCTCAGCGAAAGCAGTGC ((.(.((....)).).)) . To which folding enthalpy class does it belong?
Result :: C

Query :: Consider GGTGTTGGAAACAACGTC (..((((....))))..) . To which folding enthalpy class does it belong?
Result :: B

###

Experiment: folding enthalpy; higher = less favourable; fluorescence melt of hairpins on a sequencing array, two-state fit
Conditions: sodium 0.088 M
folding enthalpy below -30 kcal/mol gives -1; folding enthalpy at or above it gives 1.

GCCTGCGAAAGCACGGGC ((((((....)))..)))    1

Query :: Please indicate if the recorded folding enthalpy for CGCGGACTGCTCCGCG ((((((....)))))) meets or exceeds -30 kcal/mol.
Result :: -1

###

Assay: melting temperature; fluorescence melt of hairpins on a sequencing array, two-state fit, raised by 9.35 °C to match UV melts
Conditions: sodium 0.088 M
Let's look at some sequences and their measured Tm.
Report the value in °C with no unit label.

Solved entries:
GACTGGGGAAACCTAGTC ((((.((....)).))))    47.8
GAGGAGCGAAAGCTTCTC (((.(((....))).)))    57.2

Query :: Fill in: Tm of GTGAGCGAAAGCTTGCAC ((((((....)))..))) is ___
Result :: 51.4

Query :: Fill in: Tm of GACACGGGAAACCGTATC ((.((((....)))).)) is ___
Result :: 35.2

Query :: Fill in: Tm of CAGGGGAAACCCTG (((((....))))) is ___
Result :: 52.5

Query :: Fill in: Tm of GATCCATTTGTGGATC ((((((....)))))) is ___
Result :: 54.7

Query :: Fill in: Tm of GTTCTGGGAAACCAGAGC (.(((((....))))).) is ___
Result :: 46.3

Query :: Fill in: Tm of CGCGGAGCGTCCGCG ((((((...)))))) is ___
Result :: 68.1

###

Let's look at some sequences and their measured Tm.
Test: melting temperature; fluorescence melt of hairpins on a sequencing array, two-state fit, raised by 9.35 °C to match UV melts
Details: sodium 0.088 M
Reply with the number, then its unit.

Solved entries:
GGATTCGAAAGAAATCC ((((((....))).)))    44 °C
GGTTGTCCGAAAGGAACC (((..(((....))))))    31.2 °C

Query :: Fill in: Tm of GCACAGCGAAAGCAGGGC ((.(.((....)).).)) is ___
Result :: 62.5 °C

Query :: Fill in: Tm of GAGAGCACGAAAGTGCTC (((..(((....)))))) is ___
Result :: 64.1 °C

Query :: Fill in: Tm of GATCTTACGAAGATC ((((((...)))))) is ___
Result :: 42.9 °C

Query :: Fill in: Tm of GTCGCCACGAAAGTGGAC (((..(((....)))))) is ___
Result :: 35.7 °C

Query :: Fill in: Tm of GATCTGAGCCAGATC ((((((...)))))) is ___
Result :: 47 °C

Query :: Fill in: Tm of GCTTGCGAAAGCATAAGC ((((((....)))..))) is ___
Result :: 47.9 °C

Query :: Fill in: Tm of CGACGACGGAAACGTTCG (((..(((....)))))) is ___
Result :: 36.9 °C

Query :: Fill in: Tm of GATCCGCCACGGATC ((((((...)))))) is ___
Result :: 57.2 °C

Query :: Fill in: Tm of GATCCCTAATGGGATC ((((((....)))))) is ___
Result :: 57.6 °C

###

Experiment: folding enthalpy; higher = less favourable; fluorescence melt of hairpins on a sequencing array, two-state fit
Conditions: sodium 0.088 M
Endpoint label: folding enthalpy (kcal/mol)
Report the value in kcal/mol with no unit label.

GTTCTTCCGAAAGGAAAC (((..(((....))))))    -13.6
GTCTGCGGAAACGTAGAC ((((.((....)).))))    -37.8
GCGTCCCTACGC ((((....))))    -23.2
GCTCTCCGAAAGGAAAGC (((.(((....))).)))    -28.4
GATCTTGGGAAGATC ((((((...))))))    -22.8

Query :: Fill in: folding enthalpy of GAATTCGGAAACGAACTC ((.((((....)))).)) is ___
Result :: -17.4

Query :: Fill in: folding enthalpy of GATCTTGAGGAAGATC ((((((....)))))) is ___
Result :: -24.9

###

Assay: melting temperature; fluorescence melt of hairpins on a sequencing array, two-state fit, raised by 9.35 °C to match UV melts
Conditions: sodium 0.088 M
Let's look at some sequences and their measured Tm.
Report the value in °C with no unit label.

Solved entries:
GCATACGGAAACGTATGC (((((((....)))))))    67.7
GTGTCTGGAAACGGACAC (((((.(....).)))))    54
GATCTCATTAGAGATC ((((((....))))))    57.1
GATCTAAATATAGATC ((((((....))))))    35.7
GATGCCGAAAGGCGAATC ((((((....)))..)))    36.9

Query :: Fill in: Tm of GAGAAAGGAAACTTTCTC (((((((....))))))) is ___
Result :: 50.8
